Biological target: NK1R (Homo sapiens, UniProt P25103)
Sequence (P25103 whole entry): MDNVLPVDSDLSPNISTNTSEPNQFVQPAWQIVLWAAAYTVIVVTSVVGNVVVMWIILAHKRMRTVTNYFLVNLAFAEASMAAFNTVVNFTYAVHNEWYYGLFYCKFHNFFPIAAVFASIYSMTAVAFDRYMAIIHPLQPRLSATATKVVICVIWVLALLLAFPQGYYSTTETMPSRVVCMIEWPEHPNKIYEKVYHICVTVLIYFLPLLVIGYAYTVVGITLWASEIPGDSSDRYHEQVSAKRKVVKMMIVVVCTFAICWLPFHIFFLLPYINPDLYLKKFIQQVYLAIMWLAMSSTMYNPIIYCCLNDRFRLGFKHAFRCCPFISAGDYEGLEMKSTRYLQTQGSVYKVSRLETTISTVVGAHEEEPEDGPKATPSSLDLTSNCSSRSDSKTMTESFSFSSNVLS
Test: Nuclear ERK activity, Nuc-EKAR FRET biosensor, HEK293T cells with human NK1R
Assay type: cell-based
pIC50: −log10 of the molar value.
Reported metric: pIC50

INSERT INTO assay_data (compound, numeric_value) VALUES
  ('Cc1ccccc1-c1cc(N2CCN(C)CC2)ncc1N(C)C(=O)C(C)(C)c1cc(C(F)(F)F)cc(C(F)(F)F)c1 [NT, netupitant]', 6.59);

----------
Assay: pKa measurement by potentiometric titration
Format: physicochemical
Conditions: 67% methanol aqueous solution
Reported metric: pKa

INSERT INTO results (compound_string, result) VALUES
  ('Cc1ccccc1-c1cc(N2CCN(C)CC2)ncc1N(C)C(=O)C(C)(C)c1cc(C(F)(F)F)cc(C(F)(F)F)c1', 6.81);

These entries and their values trace back to paper PMC10235985.
